Attribution: ChEMBL document CHEMBL1153625

Can you tell me pIC50 for the items I'm about to list?
Target protein (sequence): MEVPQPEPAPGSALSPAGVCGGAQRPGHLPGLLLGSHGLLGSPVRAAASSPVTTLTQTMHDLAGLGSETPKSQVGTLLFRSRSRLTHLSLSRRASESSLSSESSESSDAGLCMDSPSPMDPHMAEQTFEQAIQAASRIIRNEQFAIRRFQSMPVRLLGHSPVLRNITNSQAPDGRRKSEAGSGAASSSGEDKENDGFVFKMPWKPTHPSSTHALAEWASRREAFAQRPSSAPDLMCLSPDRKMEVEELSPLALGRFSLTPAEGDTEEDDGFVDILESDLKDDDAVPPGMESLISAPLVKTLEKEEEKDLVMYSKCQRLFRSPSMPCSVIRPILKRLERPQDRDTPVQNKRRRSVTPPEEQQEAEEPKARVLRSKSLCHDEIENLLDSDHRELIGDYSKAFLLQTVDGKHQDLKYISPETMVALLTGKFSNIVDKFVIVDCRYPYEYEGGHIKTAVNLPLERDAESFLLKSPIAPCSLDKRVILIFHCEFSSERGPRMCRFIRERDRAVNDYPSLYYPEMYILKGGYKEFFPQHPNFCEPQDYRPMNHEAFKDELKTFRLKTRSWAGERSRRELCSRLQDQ
Scale: negative log10 of molar concentration, which is what pIC50 denotes.

Q: Reported pIC50 for `O=S(=O)(Nc1cc2nc3ccccc3nc2n1Cc1ccccc1)c1ccccc1` : what is it?
Result: 6.68

Q: Entry `N#Cc1c(NS(=O)(=O)c2ccccc2)n(Cc2ccccc2)c2nc3ccccc3nc12` has what pIC50?
Result: 6.70

Q: Looking for the measured pIC50 of `N#Cc1c(N)n(Cc2ccc3c(c2)OCO3)c2nc3ccccc3nc12` , can you help?
Result: 5.04

Q: Which pIC50 value belongs to O=C1C(Cl)=C(NC(Cc2ccccc2)C(=O)O)C(=O)c2ccccc21 (stereo unspecified) ?
Result: 5.42

Q: Which pIC50 is reported for this molecule? O=C(Nc1ccc(Cl)c(Cl)c1)Nc1ncc2c(n1)CC(c1ccco1)CC2=O (stereo unspecified)
Result: 4.86

Q: Return reported pIC50; argument: `O=C1C(Cl)=C(NCCc2ccc(F)cc2)C(=O)c2ccccc21`
Result: 5.02

----------
Exercise: for every item that follows, state its recorded pIC50.
Protein target, amino acids: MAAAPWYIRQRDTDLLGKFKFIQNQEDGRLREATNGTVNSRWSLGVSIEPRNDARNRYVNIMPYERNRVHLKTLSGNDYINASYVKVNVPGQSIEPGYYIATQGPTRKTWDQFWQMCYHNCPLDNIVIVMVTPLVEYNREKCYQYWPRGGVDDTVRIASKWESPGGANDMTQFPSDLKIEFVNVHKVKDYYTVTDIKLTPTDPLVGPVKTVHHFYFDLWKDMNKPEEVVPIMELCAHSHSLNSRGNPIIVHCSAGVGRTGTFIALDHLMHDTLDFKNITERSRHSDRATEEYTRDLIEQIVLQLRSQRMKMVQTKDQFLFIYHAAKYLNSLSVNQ
pIC50: −log10 of the molar value.

Q: Fill in: pIC50 of `O=S(=O)(Nc1cc2nc3ccccc3nc2n1Cc1ccccc1)c1ccccc1` is ___
Result: < 4.00

Q: Given the compound `N#Cc1c(NS(=O)(=O)c2ccccc2)n(Cc2ccccc2)c2nc3ccccc3nc12` , what is its reported pIC50?
Result: < 4.00

----------
Target sequence: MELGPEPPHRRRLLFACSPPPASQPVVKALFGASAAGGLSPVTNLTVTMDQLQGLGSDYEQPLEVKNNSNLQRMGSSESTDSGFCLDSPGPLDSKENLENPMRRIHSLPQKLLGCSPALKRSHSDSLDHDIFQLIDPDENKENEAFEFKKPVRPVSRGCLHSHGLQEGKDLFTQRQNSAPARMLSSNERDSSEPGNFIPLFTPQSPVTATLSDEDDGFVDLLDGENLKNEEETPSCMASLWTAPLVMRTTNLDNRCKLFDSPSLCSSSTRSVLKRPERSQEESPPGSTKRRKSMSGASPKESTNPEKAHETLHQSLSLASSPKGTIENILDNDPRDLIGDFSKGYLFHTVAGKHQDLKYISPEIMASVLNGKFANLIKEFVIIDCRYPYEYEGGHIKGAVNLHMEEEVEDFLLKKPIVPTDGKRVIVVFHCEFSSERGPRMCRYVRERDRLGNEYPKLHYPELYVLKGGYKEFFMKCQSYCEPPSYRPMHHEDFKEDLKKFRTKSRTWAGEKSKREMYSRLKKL
property: IC50 (µM)
Write it as a number; the unit µM goes unstated.

Q: What measured IC50 goes with `N#Cc1c(N)n(Cc2ccc3c(c2)OCO3)c2nc3ccccc3nc12` ?
Result: 5.5

Q: Item under review: O=C1C(Cl)=C(NC(Cc2ccccc2)C(=O)O)C(=O)c2ccccc21 (stereo unspecified) . Reported IC50?
Result: 3.5

Q: Which IC50 value belongs to `O=C(O)c1ccc2c(c1)C(=O)/C(=C/c1ccccc1)C2=O` ?
Result: 13.3

Q: Which IC50 is reported for this molecule? `O=C1C(Cl)=C(NCCc2ccc(F)cc2)C(=O)c2ccccc21`
Result: 3.9

Q: Could you tell me which IC50 is on file for `N#Cc1c(NS(=O)(=O)c2ccccc2)n(Cc2ccccc2)c2nc3ccccc3nc12` ?
Result: 2.9

Q: # IC50 lookup, item `O=S(=O)(Nc1cc2nc3ccccc3nc2n1Cc1ccccc1)c1ccccc1`
Result: 2.1

----------
Please respond with reported IC50 for every item in the list.

Q: Query IC50 on Tyrosine-protein phosphatase non-receptor type 1 (Homo sapiens, UniProt P18031) for `O=S(=O)(Nc1cc2nc3ccccc3nc2n1Cc1ccccc1)c1ccccc1`
Sequence (P18031 whole entry): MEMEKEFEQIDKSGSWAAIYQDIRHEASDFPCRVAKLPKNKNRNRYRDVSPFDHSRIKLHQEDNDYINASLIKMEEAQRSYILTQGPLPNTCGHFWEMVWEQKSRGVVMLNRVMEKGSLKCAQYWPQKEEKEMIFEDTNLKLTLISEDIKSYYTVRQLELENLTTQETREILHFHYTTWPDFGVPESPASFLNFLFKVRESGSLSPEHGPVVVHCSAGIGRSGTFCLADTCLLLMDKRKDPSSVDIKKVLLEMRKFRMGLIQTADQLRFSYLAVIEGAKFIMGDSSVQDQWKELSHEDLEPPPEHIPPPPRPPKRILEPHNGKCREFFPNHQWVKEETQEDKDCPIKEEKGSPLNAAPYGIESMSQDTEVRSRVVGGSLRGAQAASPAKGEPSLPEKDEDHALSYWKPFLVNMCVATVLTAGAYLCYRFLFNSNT
Result: > 100 µM

Q: Form field - read-out: IC50; system: Tyrosine-protein phosphatase non-receptor type 1 (Homo sapiens, UniProt P18031); submitted item: `N#Cc1c(NS(=O)(=O)c2ccccc2)n(Cc2ccccc2)c2nc3ccccc3nc12`
Result: > 100 µM
